Experiment: BSK_CASM3C_Proliferation: Cell Proliferation Assessment in the BioMAP Diversity Plus: CASM3C Assay (AID 2283047);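 note: sulforhodamine B total protein stain as relative cell number at 560 nm; sub-confluent cells exposed 48 h before staining; fitted both ways against DMSO so gain or loss of cell number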
Settings: primary human coronary artery smooth muscle cells
Active and inactive are the calls of the source. Rule for the calls: active = hit-call score of the fitted dose curve at least 0.9, where 1 is the maximum; inactive = score below 0.9.
Choose one outcome from this list and give only that: active, inactive

Answered examples (4):
>>> assigned_label("OC(c1ccc(Cl)cc1)(c1ccc(Cl)cc1)C(Cl)(Cl)Cl")
"active"
>>> assigned_label("CN=C=S")
"inactive"
>>> assigned_label("CC(C)N1C(=O)N(c2ccccc2)CSC1=NC(C)(C)C")
"active"
>>> assigned_label("Clc1cccc(C(Cl)(Cl)Cl)n1")
"inactive"

Give the logged outcome of this assay for the following molecule: `Nc1c(Cl)c(F)nc(OCC(=O)O)c1Cl`
inactive

----------
Assay: ATG_PBREM_CIS: Attagene CIS-FACTORIAL HepG2 Assay for human Phenobarbital-responsive Enhancer Module (PBREM) (AID 2282955)
Details: HepG2 PBREM cis-reporter, Attagene multiplexed transcription; actives raise or lower the signal
Calls of active or inactive are those of the source. The calls were made as follows: active = hit-call score of the fitted dose curve at least 0.9, where 1 is the maximum; inactive = score below 0.9.
Choose one outcome from this list and give only that: true (1) (active), false (0) (inactive)

Give the logged outcome of this assay for the following compound: `CC(C)Nc1nc(Cl)nc(NC(C)C)n1`
false (0)

Give the logged outcome of this assay for the following compound: CC(C)=CC1C(C(=O)OCc2coc(Cc3ccccc3)c2)C1(C)C (centres undefined)
true (1)

Give the logged outcome of this assay for the following compound: CCCC(=NOCC)C1=C(O)CC(CC(C)SCC)CC1=O (centres undefined)
false (0)

Give the logged outcome of this assay for the following compound: CC1(C)CCC(=Cc2ccc(Cl)cc2)C1(O)Cn1cncn1 (centres undefined)
false (0)

Give the logged outcome of this assay for the following compound: `CC(C)N1C(=O)N(c2ccccc2)CSC1=NC(C)(C)C`
false (0)

Give the logged outcome of this assay for the following compound: CCCCC(C#N)(Cn1cncn1)c1ccc(Cl)cc1 (centres undefined)
false (0)

Give the logged outcome of this assay for the following compound: `CCOc1nc(F)cc2nc(S(=O)(=O)Nc3c(Cl)cccc3Cl)nn12`
false (0)

Give the logged outcome of this assay for the following compound: `CS(=O)(=O)c1cc(C(F)(F)F)ccc1C(=O)c1cnoc1C1CC1`
false (0)

Give the logged outcome of this assay for the following compound: `COc1cc(OC)nc(NC(=O)NS(=O)(=O)c2ncccc2OCC(F)(F)F)n1`
false (0)

Give the logged outcome of this assay for the following compound: `CS(=O)(=O)c1ccc(C(=O)C2C(=O)CCCC2=O)c([N+](=O)[O-])c1`
false (0)

Give the logged outcome of this assay for the following compound: `O=c1n(Cl)c(=O)n(Cl)c(=O)n1Cl`
false (0)

Give the logged outcome of this assay for the following compound: `CNC(=O)Oc1cccc2ccccc12`
false (0)

Give the logged outcome of this assay for the following compound: `CN=C=S`
false (0)

Give the logged outcome of this assay for the following compound: `COC(=O)c1c(C(F)F)nc(C(F)(F)F)c(C2=NCCS2)c1CC(C)C`
true (1)

----------
Read-out: xenobiotic metabolism (CYP1A2), CYP1A2 (gene 1544)
Experiment: CLD_CYP1A2_6hr: CellzDirect (CLD) Gene Expression Assay for xenobiotic metabolism (CYP1A2) at 6 hours (AID 2283663)
Inconclusive results are not listed. Calls of active or inactive are those of the source. How the source made its calls: active means hit-call score of the fitted dose curve at least 0.9, where 1 is the maximum; inconclusive means response in the unintended direction; inactive means score below 0.9.
Choose one outcome from this list and give only that: y = active, n = inactive

>>> assigned_label("O=C(Nc1ccccc1-c1ccc(Cl)cc1)c1cccnc1Cl")
"y"
>>> assigned_label("C=C(C)CN(CC)c1c([N+](=O)[O-])cc(C(F)(F)F)cc1[N+](=O)[O-]")
"n"
>>> assigned_label("CS(=O)(=O)c1cc(C(F)(F)F)ccc1C(=O)c1cnoc1C1CC1")
"n"

Give the logged outcome of this assay for the following molecule: `O=P(O)(O)CCCl`
n

Give the logged outcome of this assay for the following molecule: `CCNC(=O)NC(=O)C(C#N)=NOC`
n

----------
Assay: CCTE_Shafer_MEA_dev_per_network_spike_spike_percent: CCTE's Neural Network Formation Assay for Percent of Spikes in a Network Spike, Shafer Lab (AID 2284054)
Calls of active or inactive are those of the source. Rule for the calls: active = hit-call score of the fitted dose curve at least 0.9, where 1 is the maximum; inactive = score below 0.9.
Choose one outcome from this list and give only that: active, inactive

Answered examples (2):
>>> assigned_label("CCSC(=O)N1CCCCCC1")
"inactive"
>>> assigned_label("CCN(CC)c1nc(C)cc(OP(=S)(OC)OC)n1")
"active"

Consider now this further molecule.
Give the logged outcome of this assay for the following molecule: `COP(=S)(OC)Oc1ccc([N+](=O)[O-])c(C)c1`
inactive

----------
Read-out: ABC Transporter (ABCB11), ABCB11 (gene 8647)
Test: LTEA_HepaRG_ABCB11: Life Technologies and Expression Analysis (LTEA) Assay for ABC Transporter (ABCB11) using HepaRG (AID 2283463)
Conditions: mRNA level, 48 h; actives raise or lower the signal
Activity calls are given as the source filed them. Rule for the calls: active = hit-call score of the fitted dose curve at least 0.9, where 1 is the maximum; inactive = score below 0.9.
Choose one outcome from this list and give only that: 1 for active, 0 for inactive

Answered examples (2):
>>> assigned_label("COCC(=O)N(c1c(C)cccc1C)C(C)C(=O)OC (stereo not given)")
0
>>> assigned_label("CCCCC(C#N)(Cn1cncn1)c1ccc(Cl)cc1 (stereo not given)")
1

Give the logged outcome of this assay for the following molecule: `Clc1cccc(C(Cl)(Cl)Cl)n1`
0

Give the logged outcome of this assay for the following molecule: `O=C(O)c1c(Cl)ccc2cc(Cl)cnc12`
0

Give the logged outcome of this assay for the following molecule: `N#Cc1c(Cl)cccc1Cl`
0

Give the logged outcome of this assay for the following molecule: `O=C(Nc1ccccc1-c1ccc(Cl)cc1)c1cccnc1Cl`
1

Give the logged outcome of this assay for the following molecule: CCCCC(O)(Cn1cncn1)c1ccc(Cl)cc1Cl (stereo not given)
1

----------
Read-out: Cytochrome P450 (CYP2B6), CYP2B6 (gene 1555)
Assay: LTEA_HepaRG_CYP2B6: Life Technologies and Expression Analysis (LTEA) Assay for Cytochrome P450 (CYP2B6) using HepaRG (AID 2283481)
Settings: mRNA level, 48 h; actives raise or lower the signal
Activity calls are given as the source filed them. How the source made its calls: active means hit-call score of the fitted dose curve at least 0.9, where 1 is the maximum; inactive means score below 0.9.
Choose one outcome from this list and give only that: Y for active, N for inactive

Answered examples (4):
>>> assigned_label("CC(C)Nc1nc(Cl)nc(NC(C)C)n1")
"Y"
>>> assigned_label("CC(C)NC(=O)N1CC(=O)N(c2cc(Cl)cc(Cl)c2)C1=O")
"Y"
>>> assigned_label("Cc1cnc(C2=NC(C)(C(C)C)C(=O)N2)c(C(=O)O)c1 (stereo not drawn)")
"N"
>>> assigned_label("CN=C=S")
"N"

Consider now this further compound.
Give the logged outcome of this assay for the following compound: `COP(=S)(OC)Oc1ccc([N+](=O)[O-])c(C)c1`
Y

----------
Read-out: xenobiotic metabolism (CYP1A1), CYP1A1 (gene 1543)
Test: CLD_CYP1A1_6hr: CellzDirect (CLD) Gene Expression Assay for xenobiotic metabolism (CYP1A1) at 6 hours (AID 2283661);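 for AC50: potency for transcript induction above DMSO vehicle baseline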
Inconclusive results are not listed. Activity calls are given as the source filed them. Rule for the calls: active = hit-call score of the fitted dose curve at least 0.9, where 1 is the maximum; inconclusive = response in the unintended direction; inactive = score below 0.9.
assay readout: AC50

>>> data_value("CC(C)N1C(=O)N(c2ccccc2)CSC1=NC(C)(C)C")
"inactive"
>>> data_value("COCC(C)N(C(=O)CCl)c1c(C)csc1C (configuration not stated)")
"inactive"
>>> data_value("Cc1cc(C)nc(Nc2ccccc2)n1")
"3.97 µM (active)"
>>> data_value("CCOC(=O)C(C)OC(=O)c1cc(Oc2ccc(C(F)(F)F)cc2Cl)ccc1[N+](=O)[O-] (configuration not stated)")
"4.58 µM (active)"
>>> data_value("Nc1c(Cl)c(Cl)nc(C(=O)O)c1Cl")
"20 µM (active)"
>>> data_value("O=c1n(Cl)c(=O)n(Cl)c(=O)n1Cl")
"11.3 µM (active)"
>>> data_value("COP(=S)(OC)Oc1ccc([N+](=O)[O-])c(C)c1")
"1.22 µM (active)"
>>> data_value("CC1(C)CON(Cc2ccccc2Cl)C1=O")
"inactive"
>>> data_value("CC1(C)CCC(=Cc2ccc(Cl)cc2)C1(O)Cn1cncn1 (configuration not stated)")
"0.00693 µM (active)"
>>> data_value("C=C(C)CN(CC)c1c([N+](=O)[O-])cc(C(F)(F)F)cc1[N+](=O)[O-]")
"inactive"

Requested field: AC50. Item: `CNC(=O)N(C)c1nnc(C(C)(C)C)s1`
0.00579 µM (active)

----------
Assay: ATG_AP_1_CIS: Attagene CIS-FACTORIAL HepG2 Assay for human Activator Protein 1 (AP-1) (AID 2282931)
Settings: HepG2 Attagene cis-factorial AP-1 reporter mRNA; actives raise or lower the signal
Calls of active or inactive are those of the source. The calls were made as follows: active = hit-call score of the fitted dose curve at least 0.9, where 1 is the maximum; inactive = score below 0.9.
assay readout: AC50

>>> data_value("CC(C)C1(C)N=C(c2ncccc2C(=O)O)NC1=O (stereo unspecified)")
"inactive"
>>> data_value("CCNC(=O)NC(=O)C(C#N)=NOC")
"inactive"
>>> data_value("Nc1cnn(-c2ccccc2)c(=O)c1Cl")
"inactive"
>>> data_value("CCC(C)n1c(=O)[nH]c(C)c(Br)c1=O (stereo unspecified)")
"inactive"
>>> data_value("O=P(O)(O)CCCl")
"inactive"
>>> data_value("CC1(C)C(C=C(Cl)Cl)C1C(=O)OC(C#N)c1cccc(Oc2ccccc2)c1 (stereo unspecified)")
"inactive"
>>> data_value("COc1ccc(-c2ccccc2)cc1NNC(=O)OC(C)C")
"14.7 µM (active)"
>>> data_value("C=C(C)CN(CC)c1c([N+](=O)[O-])cc(C(F)(F)F)cc1[N+](=O)[O-]")
"inactive"

Requested field: AC50. Item: CCOC(=O)C(C)OC(=O)c1cc(Oc2ccc(C(F)(F)F)cc2Cl)ccc1[N+](=O)[O-] (stereo unspecified)
inactive

Requested field: AC50. Item: `Cn1c(-c2ccccc2)cc(-c2ccccc2)[n+]1C`
inactive

Requested field: AC50. Item: `CC(C)N1C(=O)N(c2ccccc2)CSC1=NC(C)(C)C`
inactive
